The measured values listed here are drawn from paper PMC9663589.

# tested_on: recombinant SLC1A5 (Homo sapiens, UniProt Q15758)
# Sequence (Q15758 whole entry): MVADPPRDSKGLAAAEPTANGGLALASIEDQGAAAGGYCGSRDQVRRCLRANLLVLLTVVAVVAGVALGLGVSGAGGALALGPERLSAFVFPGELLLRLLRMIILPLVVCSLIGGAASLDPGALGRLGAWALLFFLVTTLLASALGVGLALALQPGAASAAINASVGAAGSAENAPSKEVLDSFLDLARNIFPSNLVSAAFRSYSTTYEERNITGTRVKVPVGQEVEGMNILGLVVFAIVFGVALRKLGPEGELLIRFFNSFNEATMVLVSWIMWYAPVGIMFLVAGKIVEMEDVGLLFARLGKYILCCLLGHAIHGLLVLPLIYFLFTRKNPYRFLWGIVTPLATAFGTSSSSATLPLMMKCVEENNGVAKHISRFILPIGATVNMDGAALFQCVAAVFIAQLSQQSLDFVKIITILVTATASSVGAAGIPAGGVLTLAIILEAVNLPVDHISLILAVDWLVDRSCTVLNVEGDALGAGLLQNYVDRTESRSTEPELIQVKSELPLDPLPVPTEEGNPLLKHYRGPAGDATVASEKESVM
# method_notes: Surface plasmon resonance, Biacore T200
# Assay type: binding
# measurement_context: Biacore T200, CM5 chip, peptide 25–400 μM, 1×PBS with 5% DMSO, 0.05% Tween 20, pH 7.4; read-out: KD (SPR)
No end group written: not given here.

{"sequence_content": "DLPSRTSALASG [P-CON]", "Kd [µM]": 126}
